# Lookup of reported TGI keyed by entry
- System: A549 NSCLC
- ASSAY_REMARKS: NCI tumour cell line growth inhibition, 48 h

MOLECULE	TGI
CC(=O)Nc1ncc2c(n1)-c1ccccc1OC2c1ccccc1 (centres undefined)	> 100 µM
CC[O-].CC[O-].COc1ccc(C(=O)[CH-]C(C)=O)cc1OC.COc1ccc(C(=O)[CH-]C(C)=O)cc1OC.[Ti+4]	> 100 µM
CSC1=C(SC)C(=O)c2cn(C)c(=O)cc2C1=O	36.9 µM
O=C1NC(=S)N/C1=C\c1ccc(Cl)cc1	> 100 µM
Cc1ccc(N=NN(C)C(C)C(O)Cc2ccccc2)cc1 (centres undefined)	> 100 µM
N#CC(NNC(=O)c1c(Cl)c(Cl)c(Cl)c(Cl)c1-c1nc2ccc(C(=O)c3ccccc3)cc2[nH]1)c1ccccc1 (centres undefined)	> 100 µM
CCc1cccc(C)c1N1C(=O)C(=O)C(c2nc3ccccc3o2)/C(=N/NC(=S)NN)C1=O (centres undefined)	> 100 µM
COC(=O)CNC(=O)CNC(=O)CSc1nnc(COc2ccc(Cl)cc2)n1-c1ccccc1	> 100 µM
O=C(NC1CCN(Cc2ccccc2)CC1)c1cccc(I)c1	> 100 µM
COc1ccc(/C(=C/c2ccc3ccccc3c2)c2nn[nH]n2)cc1OC	> 100 µM
CC1OC(OC2C(OC(=O)[C@]34CCC(C)(C)CC3C3=CCC5[C@@]6(C)C[C@H](O)[C@H](OC7OC(COC8OC(CO)C(O)C(O)C8O)C(O)C(O)C7O)[C@@](C)(C(=O)O)C6CC[C@@]5(C)C3(C)CC4)OCC(O)C2O)C(O)C(O)C1OC1OCC(O)C(O)C1O (some centres undefined)	> 100 µM
N.N.N.N.N.N#Cc1nn[n-]n1.[Cl-].[Co+3]	> 100 µM
COc1ccc(/C=C2\C[C@H]3[C@@H]4CC=C5C[C@@H](OC(C)=O)CC[C@]5(C)[C@H]4CC[C@]3(C)C2=O)cc1OC	> 100 µM
O=C(Nc1ccc(Oc2ccc(NC(=O)Nc3ccccc3Cl)cc2)cc1)Nc1ccccc1Cl	> 26.1 µM

The measured values listed here are drawn from PubChem BioAssay (NCI).
